# System: ozone
# experimentNotes: apparent second-order rate constant for reaction with ozone (kapp,O3) (M-1 s-1); higher = faster oxidation by ozone
# recordedConditions: pH 7; temperature: 22 C; OH radical scavenger: tBuOH 80 mM; phosphate 4 mM
Parameter apparent second-order rate constant: see the listing below.
readoutKind: apparent second-order rate constant

INSERT INTO assay_data (compound, readoutkind, observedvalue) VALUES
  ('Clc1cccc(N2CCNCC2)c1', 'apparent second-order rate constant', '2.1e+06'),
  ('C#CCNC(C)Cc1ccccc1 (centres undefined)', 'apparent second-order rate constant', 14000),
  ('COc1ccc2c(c1)c(CC(=O)O)c(C)n2C(=O)c1ccc(Cl)cc1', 'apparent second-order rate constant', '5.15e+06'),
  ('NCC1(CC(=O)O)CCCCC1', 'apparent second-order rate constant', 11.4),
  ('Cc1cc(=O)[nH]c2c1NC(=O)c1cccnc1N2C1CC1 [2-Hydroxynevirapine]', 'apparent second-order rate constant', '1.56e+07'),
  ('Cc1ccc(C(=O)C(C)CN2CCCCC2)cc1 (centres undefined)', 'apparent second-order rate constant', 17400),
  ('CCC(C(=O)O)N1CCCC1=O (centres undefined)', 'apparent second-order rate constant', 0.66),
  ('Cc1ccc(-c2nc3ccc(C)cn3c2CC(=O)N(C)C)cc1', 'apparent second-order rate constant', '1.28e+07'),
  ('COc1ccc2c(c1)c(CC(=O)OCC(=O)O)c(C)n2C(=O)c1ccc(Cl)cc1', 'apparent second-order rate constant', '1.04e+06');

----------
# Tested on: ozone
# experimentNotes: apparent second-order rate constant for reaction with ozone (kapp,O3) (M-1 s-1); higher = faster oxidation by ozone
# recordedConditions: pH 7; temperature: 22 C; OH radical scavenger: tBuOH 80 mM; phosphate 4 mM
Rule: condition met for apparent second-order rate constant not less than 300000, condition not met for anything less.

INSERT INTO results (compound, assignedcategory) VALUES
  ('CC(=O)Nc1ccc(S(=O)(=O)Nc2ncccn2)cc1', 'condition not met'),
  ('CC(NC(C)(C)C)C(=O)c1cccc(Cl)c1 (stereo not given)', 'condition not met'),
  ('CC(NC(C)(C)CO)C(=O)c1cccc(Cl)c1 (stereo not given) [Hydroxybupropion]', 'condition not met'),
  ('Nc1c(I)c(N)c(I)c(C(=O)O)c1I', 'condition met');

----------
# Test system: ozone
# experimentNotes: apparent second-order rate constant for reaction with ozone (kapp,O3) (M-1 s-1); higher = faster oxidation by ozone
# recordedConditions: pH 7; temperature: 22 C; OH radical scavenger: tBuOH 80 mM; phosphate 4 mM
Catalogue of molecules with associated apparent second-order rate constant
readoutKind: apparent second-order rate constant

INSERT INTO measurements (molecule, readoutkind, observedvalue) VALUES
  ('Cc1cc(N(C2OC(C(=O)O)C(O)C(O)C2O)S(=O)(=O)c2ccc(N)cc2)no1 (centres undefined) [Sulfamethoxazole-N1-glucuronide]', 'apparent second-order rate constant', 37000),
  ('CNCC(CC(=O)O)CC(C)C (centres undefined)', 'apparent second-order rate constant', 143),
  ('CC(=O)Oc1ccc(C(c2ccc(OC(C)=O)cc2)c2ccccn2)cc1', 'apparent second-order rate constant', 2.6),
  ('COc1c(CSc2nc3ccc(OC(F)F)cc3[nH]2)[nH]ccc1=O [4''-O-Demethyl-pantoprazole sulfide]', 'apparent second-order rate constant', 21000),
  ('Cc1ccnc2c1NC(=O)c1cccnc1N2C1CC1', 'apparent second-order rate constant', 86),
  ('CC(=O)Nc1ccc(O)c(SCC(NC(=O)CCC(N)C(=O)O)C(=O)NCC(=O)O)c1 (centres undefined)', 'apparent second-order rate constant', '1.1e+07'),
  ('CC(C)(Oc1ccc(C(=O)c2ccc(Cl)cc2)cc1)C(=O)O', 'apparent second-order rate constant', 2.8),
  ('CC(C)CC(CN)CC(=O)O (centres undefined)', 'apparent second-order rate constant', 15.6),
  ('Cn1c(=O)[nH]c2[nH]c(=O)n(C)c2c1=O', 'apparent second-order rate constant', '6.6e+07'),
  ('CN1C(=O)CCC1c1cccnc1 (centres undefined)', 'apparent second-order rate constant', 2.9),
  ('C#CC[N+](C)([O-])Cc1ccccc1 (centres undefined) [Pargyline-N-oxide]', 'apparent second-order rate constant', 68),
  ('CC[N+]1([O-])CCCC1CNC(=O)c1cc(S(N)(=O)=O)ccc1OC (centres undefined) [Sulpiride-N-oxide]', 'apparent second-order rate constant', 41),
  ('CCOC(=O)c1c(COCC(=O)O)nc(C)c(C(=O)OC)c1-c1ccccc1Cl [O-Des[2-aminoethyl]-O-carboxymethyl-dehydroamlodipine]', 'apparent second-order rate constant', 0.401),
  ('CC12CCC(=O)C=C1CCC1C2C(O)CC2(C)C1CCC2(O)C(=O)CO (centres undefined) [Hydrocortisone]', 'apparent second-order rate constant', 420);

----------
# Test system: ozone
# experimentNotes: apparent second-order rate constant for reaction with ozone (kapp,O3) (M-1 s-1); higher = faster oxidation by ozone
# recordedConditions: pH 7; temperature: 22 C; OH radical scavenger: tBuOH 80 mM; phosphate 4 mM
readoutKind: apparent second-order rate constant

INSERT INTO results (compound, measuredon, modifiersign, observedvalue) VALUES
  ('CC(CN(C)C)CN1c2ccccc2CCc2cc(O)ccc21 (stereo unspecified) [2-Hydroxytrimipramine]', 'ozone', '=', '8.7e+07'),
  ('Cn1cnc2c1c(=O)[nH]c(=O)n2C', 'ozone', '=', 1200),
  ('O=C(c1ccccc1)c1ccccc1', 'ozone', '<', 0.401),
  ('CN1C2CCC1C(C(=O)O)C(OC(=O)c1ccccc1)C2 (stereo unspecified)', 'ozone', '=', 11.3),
  ('CNC(=C[N+](=O)[O-])NCCSCc1ccc(CN(C)C)o1', 'ozone', '=', '6.4e+06'),
  ('COc1ccc(CCN(C)CCCC(C#N)(c2ccc(OC)c(OC)c2)C(C)C)cc1OC (stereo unspecified)', 'ozone', '=', 64000),
  ('CCC1OC(=O)C(C)C(OC2CC(C)(OC)C(O)C(C)O2)C(C)C(OC2OC(C)CC(N(C)C)C2O)C(C)(O)CC(C)CN(C)C(C)C(O)C1(C)O (stereo unspecified)', 'ozone', '=', 72000),
  ('CC(C(=O)O)c1ccc(C(O)C(C)C)cc1 (stereo unspecified) [1-Hydroxyibuprofen]', 'ozone', '=', 14.7),
  ('c1ccc2c(c1)Cc1ccccc1N1CCNCC21 (stereo unspecified)', 'ozone', '=', 570000),
  ('NC(=O)N1c2ccccc2CC(O)c2ccccc21 (stereo unspecified) [Licarbazepine]', 'ozone', '=', 10.9),
  ('CC1CC2C(C(O)CC3(C)C2CCC3(O)C(=O)CO)C2(C)C=CC(=O)C=C12 (stereo unspecified)', 'ozone', '=', 87),
  ('CC(C(=O)O)c1cccc(C(=O)c2ccccc2)c1 (stereo unspecified)', 'ozone', '=', 0.529),
  ('CC(=O)Nc1ccc(O)cc1', 'ozone', '=', '2.4e+06'),
  ('CCN1CCCC1CNC(=O)c1cc(S(N)(=O)=O)ccc1OC (stereo unspecified) [Sulpiride]', 'ozone', '=', '1.75e+06'),
  ('CC[C@H]1OC(=O)[C@H](C)[C@@H](O[C@H]2C[C@@](C)(OC)[C@@H](O)[C@H](C)O2)[C@H](C)[C@@H](O[C@@H]2O[C@H](C)C[C@H]([N+](C)(C)[O-])[C@H]2O)[C@](C)(O)C[C@@H](C)CN(C)[C@H](C)[C@@H](O)[C@]1(C)O [Azithromycin-N-oxide]', 'ozone', '=', 1150),
  ('C[C@H](C[C@@H](Cc1ccc(-c2ccccc2)cc1)NC(=O)CCC(=O)O)C(=O)O', 'ozone', '=', 16.7),
  ('COc1ccc2cc(C(C)C(=O)O)ccc2c1 (stereo unspecified)', 'ozone', '=', 500000),
  ('CNC(C)C(O)c1ccccc1 (stereo unspecified) [Ephedrine]', 'ozone', '=', 1720),
  ('Cc1ccc2nc(-c3ccc(C(=O)O)cc3)c(CC(=O)N(C)C)n2c1', 'ozone', '=', '6.3e+06'),
  ('CC(C)(Oc1ccc(Cl)cc1)C(=O)O', 'ozone', '=', 23),
  ('O=C(O)Cc1cc(O)ccc1Nc1c(Cl)cccc1Cl [5-Hydroxydiclofenac]', 'ozone', '=', '6.4e+07'),
  ('CC(C)NC(=O)NS(=O)(=O)c1cnccc1Nc1cccc(C(=O)O)c1 [Torasemide carboxylic acid]', 'ozone', '=', 214),
  ('COc1ccc2c3c1OC1C(O)C=CC4C(C2)NCCC341 (stereo unspecified)', 'ozone', '=', '2.68e+06'),
  ('NS(=O)(=O)c1cc2c(cc1Cl)NC=NS2(=O)=O [Chlorothiazide]', 'ozone', '=', 1.57),
  ('COc1cc(Cc2cnc(N)nc2N)cc(OC)c1O', 'ozone', '=', '3.6e+07'),
  ('CC[N+]([O-])(CC)CC(=O)Nc1c(C)cccc1C [Lidocaine-N-oxide]', 'ozone', '=', 10.9);
